What MFI Ratio was measured for each of the following?
# Test Target: SARS-CoV-2 membrane protein on expressing cells (SARS-CoV-2, UniProt P0DTC5 1-222)

10-44 (VHH) VHH: EVQLVESGGGLVQPGGSLRLSCAASGRTFRRYTMGWFRQAPGKEREFVAVISWSGGSTKYADSVKGRFTISADNSKNTAYLQMNSLKPEDTAVYYCARKGRWSGMNVWGQGTLVTVSS	1.46
10-31 (VHH) VHH: EVQLVESGGGLVQPGGSLRLSCAASGRTFGSYGMGWFRQAPGKEREFVATISIGGRTYYADSVKGRFTISADNSKNTAYLQMNSLKPEDTAVYYCARGSGSGFMWYHGNNNYDRWRYWGQGTLVTVSS	1.66
10-6 (VHH) VHH: EVQLVESGGGLVQPGGSLRLSCAASGTTLTFRIMGWFRQAPGKEREFVPAISSTGLASYTDSVKGRFTISADNSKNTAYLQMNSLKPEDTAVYYCSKDRAPNCFACCPNGFDVWGQGTLVTVSS	1.08
10-26 (VHH) VHH: EVQLVESGGGLVQPGGSLRLSCAASGRTFSGFTMSSTWMGWFRQAPGKEREFVAGIITNGSTNYADSVKGRFTISADNSKNTAYLQMNSLKPEDTAVYYCARRVAYSSFWSGLRKHMDVWGQGTLVTVSS	5.2
10-5 (VHH) VHH: EVQLVESGGGLVQPGGSLRLSCAASGRSLGIYRMGWFRQAPGKEREFVAAITSGGRKNYADSVKGRFTISADNSKNTAYLQMNSLKPEDTAVYYCAKRTIFGVGRWLDPWGQGTLVTVSS	1.59
10-50 (VHH) VHH: EVQLVESGGGLVQPGGSLRLSCAASGRTLSTYNMGWFRQAPGKEREFVASISRFGRTNYADSVKGRFTISADNSKNTAYLQMNSLKPEDTAVYYCARRGKLSAAMHWFDPWGQGTLVTVSS	1.72

Look at each binder and report its MFI Ratio.
1. 10-40 (VHH) VHH: EVQLVESGGGLVQPGGSLRLSCAASGRTFSTYTMGWFRQAPGKEREFVARIWRSGGNTYYADSVKGRFTISADNSKNTAYLQMNSLKPEDTAVYYCARGVRGVFRAYFDHWGQGTLVTVSS
2. 10-60 (VHH) VHH: EVQLVESGGGLVQPGGSLRLSCAASGIPASMYLGWFRQAPGKEREFVAAITSGGRTSYADSVKGRFTISADNSKNTAYLQMNSLKPEDTAVYYCAKRKKRGPLWFGGGGWGYWGQGTLVTVSS

3.78
1.14
